Source listed as ChEMBL document CHEMBL4033786.

target: C-C chemokine receptor type 3 (Homo sapiens); assay: Agonist activity at CCR3 (unknown origin)
Sequence (P51677 whole entry): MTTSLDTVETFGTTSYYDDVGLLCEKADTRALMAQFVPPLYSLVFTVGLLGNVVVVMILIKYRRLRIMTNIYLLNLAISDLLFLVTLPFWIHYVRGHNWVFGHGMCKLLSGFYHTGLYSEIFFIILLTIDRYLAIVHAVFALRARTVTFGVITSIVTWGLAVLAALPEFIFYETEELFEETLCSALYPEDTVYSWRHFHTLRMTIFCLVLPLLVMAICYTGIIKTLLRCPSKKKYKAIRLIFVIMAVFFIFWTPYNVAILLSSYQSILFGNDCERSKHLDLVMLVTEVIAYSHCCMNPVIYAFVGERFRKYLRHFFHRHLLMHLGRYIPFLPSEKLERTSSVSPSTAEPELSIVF
VALUE TYPE: EC50

Which EC50 value belongs to `CC1=CCC[C@H]1NC(=O)Nc1ccc(Cl)c(S(=O)(=O)[C@@]2(C)CCOC2)c1O` ?
> 10 µM

###

biological target: C-X-C chemokine receptor type 4 (Homo sapiens)
Sequence (P61073 whole entry): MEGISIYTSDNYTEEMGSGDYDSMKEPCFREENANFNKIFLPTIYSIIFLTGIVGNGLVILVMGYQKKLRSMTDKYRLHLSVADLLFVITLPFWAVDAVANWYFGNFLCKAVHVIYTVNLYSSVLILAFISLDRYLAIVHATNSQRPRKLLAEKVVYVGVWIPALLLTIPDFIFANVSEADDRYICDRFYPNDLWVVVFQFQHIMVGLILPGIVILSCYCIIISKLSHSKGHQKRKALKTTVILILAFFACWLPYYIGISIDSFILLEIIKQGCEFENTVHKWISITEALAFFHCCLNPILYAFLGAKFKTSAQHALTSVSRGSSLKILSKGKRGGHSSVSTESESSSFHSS
pIC50: −log10 of the molar value.
VALUE TYPE: pIC50

Under C-X-C chemokine receptor type 4 (Homo sapiens): pIC50 value of `CC1=CCC[C@H]1NC(=O)Nc1ccc(Cl)c(S(=O)(=O)[C@@]2(C)CCOC2)c1O` ?
< 5.00

###

Target: C-X-C chemokine receptor type 2 (Homo sapiens, UniProt P25025)
Sequence (P25025 whole entry): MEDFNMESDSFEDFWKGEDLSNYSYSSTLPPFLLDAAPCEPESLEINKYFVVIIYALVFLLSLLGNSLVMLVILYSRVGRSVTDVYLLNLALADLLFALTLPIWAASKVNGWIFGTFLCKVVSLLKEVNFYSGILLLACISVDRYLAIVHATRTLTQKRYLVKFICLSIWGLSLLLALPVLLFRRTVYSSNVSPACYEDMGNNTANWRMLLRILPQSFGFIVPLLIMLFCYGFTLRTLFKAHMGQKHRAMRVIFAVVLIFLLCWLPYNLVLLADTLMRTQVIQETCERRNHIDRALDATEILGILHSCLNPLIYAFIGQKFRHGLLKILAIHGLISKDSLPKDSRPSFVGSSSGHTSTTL
Test: Antagonist activity at TEV protease cleavage site linked GAL4-VP16-fused recombinant human CXCR2 expressed in cells assessed as inhibition of […] human CXCL1-stimulated beta-arrestin recruitment by CCF4-AM-fluorescence based FRET assay
Type: cell-based
Settings: read-out: pIC50 (converted)
# log10 of IC50 annotations
Values are log10 of IC50 in nM.

COMPOUND: CC(C)S(=O)(=O)c1c(Cl)ccc(NC(=O)NC2CCOCC2)c1O
log10 of IC50: 3.10

Look up log10 of IC50: CC(C)S(=O)(=O)c1c(Cl)ccc(NC(=O)NC2C=CCC2)c1O (racemic)
0.80
